Target: N-lysine methyltransferase KMT5A (Homo sapiens, UniProt Q9NQR1)
Sequence (Q9NQR1 whole entry, the tested form may be a part): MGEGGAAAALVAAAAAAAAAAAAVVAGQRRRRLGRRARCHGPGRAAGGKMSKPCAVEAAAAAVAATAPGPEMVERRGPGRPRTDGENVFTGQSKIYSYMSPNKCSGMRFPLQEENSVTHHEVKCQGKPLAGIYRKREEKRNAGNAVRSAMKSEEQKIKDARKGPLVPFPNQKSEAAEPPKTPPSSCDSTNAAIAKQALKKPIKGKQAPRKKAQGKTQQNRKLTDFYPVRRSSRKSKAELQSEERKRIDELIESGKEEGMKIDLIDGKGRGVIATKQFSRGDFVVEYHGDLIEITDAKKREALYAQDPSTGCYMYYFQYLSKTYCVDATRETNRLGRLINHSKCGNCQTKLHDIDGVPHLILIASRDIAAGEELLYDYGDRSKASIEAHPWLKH
Test: Inhibition of recombinant SETD8 catalytic domain (unknown origin) (232 to 393 residues) expressed in Escherichia coli assessed as reduction in incorporation of [3H]-labeled methyl group into biotinylated H4 (1 to 24) peptide measured after 5 hrs using [3H-SAM] by scintillation proximity assay
pIC50: −log10 of the molar value.

[
  {
    "line.notation": "C=CC(=O)NCCCNc1nc(N2CCCC2)nc2cc(OC)c(OC)cc12",
    "pIC50": 6.09
  }
]

###

Target: UniProt Q9NQR1
Experiment: Inhibition of recombinant SETD8 catalytic domain (unknown origin) (232 to 393 residues) expressed in Escherichia coli assessed as reduction in incorporation of [3H]-labeled methyl group into biotinylated H4 (1 to 24) peptide measured after 1 hr using [3H-SAM] by scintillation proximity assay
pIC50: −log10 of the molar value.
Reported pIC50 by item:
assay.readout: pIC50

[
  {
    "line.notation": "C=CC(=O)NCCCN(C)c1nc(N2CCCC2)nc2cc(OC)c(OC)cc12",
    "target.under.test": "UniProt Q9NQR1",
    "comparison.operator": "<",
    "recorded.measurement": 3.70
  },
  {
    "line.notation": "C=CC(=O)NCCCNc1nc(N2CCCC2)nc2cc(OC)c(OC)cc12",
    "target.under.test": "UniProt Q9NQR1",
    "comparison.operator": "=",
    "recorded.measurement": 5.16
  }
]
